Data provenance: the supplement of paper PMC8728848

- Tgt: Fuc(a1-4)GlcNAc
- Run Description: glycan array binding signal (z-score within array); higher = stronger binding
- Test Settings: glycan notation: IUPAC condensed, linker removed
The sample as a whole holds a higher share of the strongest signals than the screen did.
Respond with 1.0 for glycan array binding signal (z-score) values of 1 and above, 0.0 for values below.

Q. Confirm if glycan array binding signal (z-score) reported for the binder rMpL (Macrolepiota procera) (protein) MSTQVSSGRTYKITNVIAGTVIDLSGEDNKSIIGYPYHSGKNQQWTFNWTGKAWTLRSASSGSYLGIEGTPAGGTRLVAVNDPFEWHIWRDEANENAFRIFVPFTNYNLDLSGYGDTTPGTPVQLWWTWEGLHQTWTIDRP is 1 or above.
A. 0.0

Q. Check if glycan array binding signal (z-score) >= 1 (inclusive). Item: Thrombomodulin (Mus musculus) (protein) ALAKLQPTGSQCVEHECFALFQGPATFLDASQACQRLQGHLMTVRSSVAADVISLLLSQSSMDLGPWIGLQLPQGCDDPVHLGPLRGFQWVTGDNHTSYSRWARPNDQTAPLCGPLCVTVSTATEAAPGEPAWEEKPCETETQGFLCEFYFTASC
A. 1.0

Q. Evaluate CLEC5A (Homo sapiens), Q9NY25 (protein) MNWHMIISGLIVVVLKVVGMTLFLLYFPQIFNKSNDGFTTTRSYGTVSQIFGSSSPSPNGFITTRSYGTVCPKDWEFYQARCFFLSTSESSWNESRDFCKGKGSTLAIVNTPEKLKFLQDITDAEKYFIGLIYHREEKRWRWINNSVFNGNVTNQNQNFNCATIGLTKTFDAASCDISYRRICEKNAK : glycan array binding signal (z-score) at minimum 1?
A. 1.0

Q. Evaluate Mermaid3 (Stilbonema majum) (protein) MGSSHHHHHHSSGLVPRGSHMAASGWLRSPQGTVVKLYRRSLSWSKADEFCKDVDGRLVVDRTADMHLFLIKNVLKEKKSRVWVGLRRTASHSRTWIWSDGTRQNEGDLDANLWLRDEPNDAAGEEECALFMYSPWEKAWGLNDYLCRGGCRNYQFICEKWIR : glycan array binding signal (z-score) at minimum 1?
A. 1.0

Q. Item Calsepa (Calystegia sepium), P93114 (protein) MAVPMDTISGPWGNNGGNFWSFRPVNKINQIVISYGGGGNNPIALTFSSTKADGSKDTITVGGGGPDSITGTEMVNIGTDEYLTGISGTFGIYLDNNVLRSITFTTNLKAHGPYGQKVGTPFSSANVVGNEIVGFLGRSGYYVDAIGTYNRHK with glycan array binding signal (z-score) of 1 or above?
A. 0.0

Q. API: above_or_equal(metric=glycan array binding signal (z-score), cutoff=1) for item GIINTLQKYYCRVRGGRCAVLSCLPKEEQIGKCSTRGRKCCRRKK [Beta-Defensin 3 (Homo sapiens), P81534]
A. 0.0

Q. Assess whether reported glycan array binding signal (z-score) for SLR2P2A3 (Tachypleus tridentatus), TAL2_TACTR (protein) MEKGTPPTHDSDNWMGRAKKIGNGGWNQFQFLFFDPNGYLYAVSKDKLYKASPPQSDTDNWIARATEIGSGGWSGSKFLFFHPNGYLYAVHGQRLYKALPPVSNQD sits at 1 or higher.
A. 0.0
